// data source = the Human Domainome abundance scans (Beltran et al. 2025)

B1: Arginine-glutamic acid dipeptide repeats protein, residues 502 to 543; numbered along this chain, Q9P2R6 (parent)
chain: LKGYACRHCFTTTSKDWHHGGRENILLCTDCRIHFKKYGELP

- Variants of: B1
- measurementProtocol: abundance fitness (aPCA) (normalised: wild type 0, dead -1); higher = more abundant; growth selection in yeast, the domain comes from the species named
- recordedConditions: Homo sapiens
# binarize abundance fitness: threshold -0.2 inclusive, high side criterion met, low side criterion not met

INSERT INTO results (variantid, cat) VALUES
  ('G39F', 'criterion not met'),
  ('I33T', 'criterion met'),
  ('D16W', 'criterion not met'),
  ('R22H', 'criterion not met'),
  ('Y38N', 'criterion met'),
  ('E23Y', 'criterion not met'),
  ('R32T', 'criterion met'),
  ('K36R', 'criterion met'),
  ('I25T', 'criterion met'),
  ('R7K', 'criterion met'),
  ('D16T', 'criterion not met'),
  ('Y38C', 'criterion met'),
  ('L27P', 'criterion not met'),
  ('L41V', 'criterion not met'),
  ('T11P', 'criterion not met'),
  ('C9T', 'criterion not met'),
  ('G3K', 'criterion met'),
  ('E23I', 'criterion not met'),
  ('D16L', 'criterion not met'),
  ('Y4V', 'criterion met'),
  ('K2S', 'criterion met');
